Sourced from paper PMC12703733

System: P. aeruginosa ATCC 27853
Method description: microbe, parasite or virus in culture
Format: cell-based
Study conditions: ATCC 27853
Bridge positions count the residues as written; N and C are the ends. Square brackets hold non-standard residues; d marks the D form. Peptide text beside a SMILES is read from it.
Listed below: MIC values for each entry.
// return numeric value only (unit: µM, not printed)

CC[C@H](C)[C@H](NC(=O)[C@H](CCCNC(=N)N)NC(=O)[C@H]1CCC(=O)NCCCC[C@H](NC(=O)[C@H](Cc2ccccc2)NC(=O)[C@H](Cc2c[nH]c3ccccc23)NC(=O)[C@@H]2CCCN2C(=O)[C@@H](NC(=O)[C@@H](N)Cc2ccccc2)C(C)C)C(=O)N[C@@H](CCCCN)C(=O)N[C@@H](Cc2ccccc2)C(=O)N[C@H](CC(C)C)C(=O)N1)C(=O)N[C@@H](CC(C)C)C(N)=O [Peptide 2, FVPWF[KKFle]RIL] (H-FVPWFKKF[dL][dE]RIL-NH2; lactam 6-10)
50

Moving on to the next compound.
Report MIC for CC[C@H](C)[C@H](NC(=O)[C@H](CCCNC(=N)N)NC(=O)[C@H]1CCCCNC(=N)NCCCC[C@H](NC(=O)[C@H](Cc2ccccc2)NC(=O)[C@H](Cc2c[nH]c3ccccc23)NC(=O)[C@@H]2CCCN2C(=O)[C@@H](NC(=O)[C@@H](N)Cc2ccccc2)C(C)C)C(=O)N[C@@H](CCCCN)C(=O)N[C@@H](Cc2ccccc2)C(=O)N[C@H](CC(C)C)C(=O)N1)C(=O)N[C@@H](CC(C)C)C(N)=O [Peptide 12, FVPWF{KKFlk}RIL] tested on P. aeruginosa ATCC 27853.
12.5

----------
Parameter MIC: see the listing below.
Test system: A. baumannii ATCC 19606
Method description: microbe, parasite or virus in culture
Format: cell-based
Study conditions: ATCC 19606
Bridge positions count the residues as written; N and C are the ends. Square brackets hold non-standard residues; d marks the D form. Peptide text beside a SMILES is read from it. * marks the point of attachment. X1 = N=C(N)N[C@@H](Cc1ccccc1)C(=O)*
State the answer as a number, implicitly in µM.

CC[C@H](C)[C@H](NC(=O)[C@H](CCCNC(=N)N)NC(=O)[C@H]1CCC(=O)NCCCC[C@H](NC(=O)[C@H](Cc2ccccc2)NC(=O)[C@H](Cc2c[nH]c3ccccc23)NC(=O)[C@@H]2CCCN2C(=O)[C@@H](NC(=O)[C@H](Cc2ccccc2)NC(=N)N)C(C)C)C(=O)N[C@@H](CCCCN)C(=O)N[C@@H](Cc2ccccc2)C(=O)N[C@H](CC(C)C)C(=O)N1)C(=O)N[C@@H](CC(C)C)C(N)=O [Peptide 3, guanidino-FVPWF[KKFle]RIL] (X1-VPWFKKF[dL][dE]RIL-NH2; lactam 5-9)
3.12

Item CC[C@H](C)[C@H](NC(=O)[C@H](CCCNC(=N)N)NC(=O)[C@@H]1CCCCNC(=N)NCCCC[C@H](NC(=O)[C@H](Cc2ccccc2)NC(=O)[C@H](Cc2c[nH]c3ccccc23)NC(=O)[C@@H]2CCCN2C(=O)[C@@H](NC(=O)[C@@H](N)Cc2ccccc2)C(C)C)C(=O)N[C@@H](CCCCN)C(=O)N[C@@H](Cc2ccccc2)C(=O)N[C@H](CC(C)C)C(=O)N1)C(=O)N[C@@H](CC(C)C)C(N)=O [Peptide 11, FVPWF{KKFlK}RIL] has what recorded MIC?
1.56

----------
Tested on: A. baumannii ATCC 19606
Method description: microbe, parasite or virus in culture
Format: cell-based
Study conditions: ATCC 19606
Bridge positions count the residues as written; N and C are the ends. Square brackets hold non-standard residues; d marks the D form. Peptide text beside a SMILES is read from it. Phe(4-guanidino) = N=C(N)Nc1ccc(C[C@H](N)C(=O)O)cc1
Reported endpoint: MIC (µM)
Expressed in µM, but write only the number.

Please report the recorded MIC for CC[C@H](C)[C@H](NC(=O)[C@H](CCCNC(=N)N)NC(=O)[C@H]1CCC(=O)NCCCC[C@H](NC(=O)[C@H](Cc2ccc(NC(=N)N)cc2)NC(=O)[C@H](Cc2c[nH]c3ccccc23)NC(=O)[C@@H]2CCCN2C(=O)[C@@H](NC(=O)[C@@H](N)Cc2ccccc2)C(C)C)C(=O)N[C@@H](CCCCN)C(=O)N[C@@H](Cc2ccccc2)C(=O)N[C@H](CC(C)C)C(=O)N1)C(=O)N[C@@H](CC(C)C)C(N)=O [Peptide 8, FVPW(p-guanidino)F[KKFle]RIL] (H-FVPW[Phe(4-guanidino)]KKF[dL][dE]RIL-NH2; lactam 6-10) .
6.25

----------
Type: cell-based, human
Study conditions: human, CC50
The following compounds are listed with their measured CC50 at 24 h values.
# unit: µM | format: bare number

CC[C@H](C)[C@H](NC(=O)[C@H](CCCNC(=N)N)NC(=O)[C@H]1CCCCNC(=N)NCCCC[C@H](NC(=O)[C@H](Cc2ccccc2)NC(=O)[C@H](Cc2c[nH]c3ccccc23)NC(=O)[C@@H]2CCCN2C(=O)[C@@H](NC(=O)[C@@H](N)Cc2ccccc2)C(C)C)C(=O)N[C@@H](CCCCN)C(=O)N[C@@H](Cc2ccccc2)C(=O)N[C@H](CC(C)C)C(=O)N1)C(=O)N[C@@H](CC(C)C)C(N)=O [Peptide 12, FVPWF{KKFlk}RIL]
19.6

For the next question, use this compound.
Recorded CC50 at 24 h for CC[C@H](C)[C@H](NC(=O)[C@H](CCCNC(=N)N)NC(=O)[C@@H]1CCCCNC(=N)NCCCC[C@H](NC(=O)[C@H](Cc2ccccc2)NC(=O)[C@H](Cc2c[nH]c3ccccc23)NC(=O)[C@@H]2CCCN2C(=O)[C@@H](NC(=O)[C@@H](N)Cc2ccccc2)C(C)C)C(=O)N[C@@H](CCCCN)C(=O)N[C@@H](Cc2ccccc2)C(=O)N[C@H](CC(C)C)C(=O)N1)C(=O)N[C@@H](CC(C)C)C(N)=O [Peptide 11, FVPWF{KKFlK}RIL] , please?
21.3

----------
Below is a list of entries, each paired with its recorded MIC value.
Test system: E. faecalis ATCC 29212
Method description: microbe, parasite or virus in culture
Type: cell-based
Study conditions: ATCC 29212
Bridge positions count the residues as written; N and C are the ends. Square brackets hold non-standard residues; d marks the D form. Peptide text beside a SMILES is read from it. * marks the point of attachment. Phe(4-guanidino) = N=C(N)Nc1ccc(C[C@H](N)C(=O)O)cc1; Propanoyl(3-guanidino) = N=C(N)NCCC(=O)*
Don't forget the unit after the value.

Look over these answered cases.
CC[C@H](C)[C@H](NC(=O)[C@H](CCCNC(=N)N)NC(=O)[C@H]1CCC(=O)NCCCC[C@H](NC(=O)[C@H](Cc2ccccc2)NC(=O)[C@H](Cc2c[nH]c3ccccc23)NC(=O)[C@@H]2CCCN2C(=O)[C@@H](NC(=O)[C@@H](N)Cc2ccccc2)C(C)C)C(=O)N[C@@H](CCCCN)C(=O)N[C@@H](Cc2ccc(NC(=N)N)cc2)C(=O)N[C@H](CC(C)C)C(=O)N1)C(=O)N[C@@H](CC(C)C)C(N)=O [Peptide 10, FVPWF[KK(p-guanidino)Fle]RIL] (H-FVPWFKK[Phe(4-guanidino)][dL][dE]RIL-NH2; lactam 6-10)
50 µM
CC[C@H](C)[C@H](NC(=O)[C@H](CCCNC(=N)N)NC(=O)[C@H]1CCC(=O)NCCCC[C@H](NC(=O)[C@H](Cc2ccccc2)NC(=O)[C@H](Cc2c[nH]c3ccccc23)NC(=O)[C@@H]2CCCN2C(=O)[C@@H](NC(=O)[C@@H](N)Cc2ccc(NC(=N)N)cc2)C(C)C)C(=O)N[C@@H](CCCCN)C(=O)N[C@@H](Cc2ccccc2)C(=O)N[C@H](CC(C)C)C(=O)N1)C(=O)N[C@@H](CC(C)C)C(N)=O [Peptide 6, (p-guanidino)FVPWF[KKFle]RIL] (H-[Phe(4-guanidino)]VPWFKKF[dL][dE]RIL-NH2; lactam 6-10)
12.5 µM
CC[C@H](C)[C@H](NC(=O)[C@H](CCCNC(=N)N)NC(=O)[C@@H]1CCCNC(=N)NCCC[C@H](NC(=O)[C@H](Cc2ccccc2)NC(=O)[C@H](Cc2c[nH]c3ccccc23)NC(=O)[C@@H]2CCCN2C(=O)[C@@H](NC(=O)[C@@H](N)Cc2ccccc2)C(C)C)C(=O)N[C@@H](CCCCN)C(=O)N[C@@H](Cc2ccccc2)C(=O)N[C@H](CC(C)C)C(=O)N1)C(=O)N[C@@H](CC(C)C)C(N)=O [Peptide 13, FVPWF{OrnKFlOrn}RIL]
6.25 µM
CC[C@H](C)[C@H](NC(=O)[C@H](CCCNC(=N)N)NC(=O)[C@H]1CCC(=O)NCCCC[C@H](NC(=O)[C@H](Cc2ccccc2)NC(=O)[C@H](Cc2c[nH]c3ccccc23)NC(=O)[C@@H]2CCCN2C(=O)[C@@H](NC(=O)[C@H](Cc2ccccc2)NC(=O)CCNC(=N)N)C(C)C)C(=O)N[C@@H](CCCCN)C(=O)N[C@@H](Cc2ccccc2)C(=O)N[C@H](CC(C)C)C(=O)N1)C(=O)N[C@@H](CC(C)C)C(N)=O [Peptide 4, guanidino-βAla-FVPWF[KKFle]RIL] ({Propanoyl(3-guanidino)}-FVPWFKKF[dL][dE]RIL-NH2; lactam 6-10)
6.25 µM

What MIC appears in the records for this molecule with E. faecalis ATCC 29212? CC[C@H](C)[C@H](NC(=O)[C@H](CCCNC(=N)N)NC(=O)[C@H]1CCCCNC(=N)NCCCC[C@H](NC(=O)[C@H](Cc2ccccc2)NC(=O)[C@H](Cc2c[nH]c3ccccc23)NC(=O)[C@@H]2CCCN2C(=O)[C@@H](NC(=O)[C@@H](N)Cc2ccccc2)C(C)C)C(=O)N[C@@H](CCCCN)C(=O)N[C@@H](Cc2ccccc2)C(=O)N[C@H](CC(C)C)C(=O)N1)C(=O)N[C@@H](CC(C)C)C(N)=O [Peptide 12, FVPWF{KKFlk}RIL]
6.25 µM
